Tested on: MOLT-4
testProtocol: Antiproliferative activity against human MOLT-4 cells assessed as […] cell proliferation at 10 uM incubated for 48 hrs in presence of 2 uM of CDDP by WST-1 assay relative to control
Format: functional
quantityMeasured: Activity (%)
Supply the numeric figure in %, leaving out any unit text.

Given `CC(C)S(=O)(=O)c1ccc(-c2cnc3[nH]cc(C(=O)N4CCC(c5ccccc5)CC4)c3c2)cc1` , state its recorded Activity.
28

Moving on to the next compound: `CC(C)S(=O)(=O)c1ccc(-c2cc(C(=O)NCc3ccccc3)n[nH]2)cc1`
68

Moving on to the next compound: `CC(C)S(=O)(=O)c1ccc(-c2cnc3[nH]c(C(=O)N4CCC(c5ccccc5)CC4)cc3c2)cc1`
64

Moving on to the next compound: `CC(C)S(=O)(=O)c1ccc(-c2cnc3[nH]c(C(=O)NCc4ccccc4)cc3c2)cc1`
61

Moving on to the next compound: `CC(C)S(=O)(=O)c1ccc(-c2cnc3[nH]nc(C(=O)N4CCc5ccccc5C4)c3c2)cc1`
61

Moving on to the next compound: `CCN(CC)c1ccc(CNC(=O)c2c[nH]c3ncc(-c4ccc(S(C)(=O)=O)cc4)cc23)cc1`
59

Moving on to the next compound: `CCN(CC)c1ccc(CNC(=O)c2cc3cc(-c4ccc(S(=O)(=O)C(C)C)cc4)cnc3[nH]2)cc1`
57

Moving on to the next compound: `CCN(CC)c1ccc(CNC(=O)c2n[nH]c3ncc(-c4ccc(S(=O)(=O)C(C)C)cc4)cc23)cc1`
57

Moving on to the next compound: `CC(C)S(=O)(=O)c1ccc(-c2cnc3[nH]cc(CN4CCc5ccccc5C4)c3c2)cc1`
62

Moving on to the next compound: `CC(C)S(=O)(=O)c1ccc(-c2cnc3[nH]cc(C(=O)N4CCc5ccccc5C4)c3c2)cc1`
66

Moving on to the next compound: `CCN(CC)c1ccc(CNC(=O)c2cc(-c3ccc(S(=O)(=O)C(C)C)cc3)[nH]n2)cc1`
62

Moving on to the next compound: `CS(=O)(=O)c1ccc(-c2cc(C(=O)NCc3ccccc3)n[nH]2)cc1`
63

Moving on to the next compound: `CC(C)S(=O)(=O)c1ccc(-c2cc(-c3nnc(-c4ccccc4)o3)n[nH]2)cc1`
64

Moving on to the next compound: `CS(=O)(=O)c1ccc(-c2cnc(N)c(C(=O)Nc3ccccc3)n2)cc1`
16

Moving on to the next compound: `CC(C)S(=O)(=O)c1ccc(-c2cnc3[nH]c(C(=O)Nc4ccc(N(C)C)cc4)cc3c2)cc1`
68

Moving on to the next compound: `CC(C)S(=O)(=O)c1ccc(-c2cnc3[nH]c(C(=O)Nc4ccccc4)cc3c2)cc1`
65

----------
Test system: A2780
testProtocol: Antiproliferative activity against human A2780 cells assessed as […] cell proliferation at 10 uM incubated for 48 hrs in presence of 2 uM of CDDP by WST-1 assay relative to control
Assay type: functional
quantityMeasured: Activity (%)
Supply the numeric figure in %, leaving out any unit text.

For the record `CCN(CC)c1ccc(CNC(=O)c2c[nH]c3ncc(-c4ccc(S(C)(=O)=O)cc4)cc23)cc1` , what value of Activity is listed for A2780?
59

Moving on to the next molecule: `CC(C)S(=O)(=O)c1ccc(-c2cnc3[nH]nc(C(=O)NCc4ccccc4)c3c2)cc1`
60

Moving on to the next molecule: `CC(C)S(=O)(=O)c1ccc(-c2cnc3[nH]cc(C(=O)Nc4ccc(N(C)C)cc4)c3c2)cc1`
59

Moving on to the next molecule: `CC(C)S(=O)(=O)c1ccc(-c2cnc3[nH]nc(C(=O)N4CCc5ccccc5C4)c3c2)cc1`
61

Moving on to the next molecule: `CCN1CCN(C2CCN(Cc3c[nH]c4ncc(-c5ccc(S(=O)(=O)C(C)C)cc5)cc34)CC2)CC1`
46

Moving on to the next molecule: `CC(C)S(=O)(=O)c1ccc(-c2cnc3[nH]c(C(=O)N4CCc5ccccc5C4)cc3c2)cc1`
57

Moving on to the next molecule: `CC(C)S(=O)(=O)c1ccc(-c2cnc3[nH]cc(C(=O)N4CCc5ccccc5C4)c3c2)cc1`
66

Moving on to the next molecule: `CCN(CC)c1ccc(CNC(=O)c2cc(-c3ccc(S(=O)(=O)C(C)C)cc3)[nH]n2)cc1`
62

Moving on to the next molecule: `CC(C)S(=O)(=O)c1ccc(-c2cnc3[nH]c(C(=O)Nc4ccc(N(C)C)cc4)cc3c2)cc1`
68

Moving on to the next molecule: `CCN(CC)c1ccc(CNC(=O)c2cc3cc(-c4ccc(S(=O)(=O)C(C)C)cc4)cnc3[nH]2)cc1`
57

Moving on to the next molecule: `CC(C)S(=O)(=O)c1ccc(-c2cnc3[nH]c(C(=O)NCc4ccccc4)cc3c2)cc1`
61

Moving on to the next molecule: `CCN1CCN(C(=O)c2c[nH]c3ncc(-c4ccc(S(=O)(=O)C(C)C)cc4)cc23)CC1`
66

Moving on to the next molecule: `CC(C)S(=O)(=O)c1ccc(-c2cc(C(=O)N3CCC(c4ccccc4)CC3)n[nH]2)cc1`
62

Moving on to the next molecule: `CC(C)S(=O)(=O)c1ccc(-c2cnc3[nH]cc(CN4CCc5ccccc5C4)c3c2)cc1`
62

Moving on to the next molecule: `CC(C)S(=O)(=O)c1ccc(-c2cc(-c3nc(-c4ccccc4)no3)n[nH]2)cc1`
62

Moving on to the next molecule: `CC(C)S(=O)(=O)c1ccc(-c2cnc3[nH]nc(C(=O)N4CCC(c5ccccc5)CC4)c3c2)cc1`
49
